System: MvaT
test details: PBM 8-mer E-score (mean of HK and ME arrays) (E-score (dimensionless, -0.5 to 0.5)); higher = stronger relative binding preference
In all, about 33,000 sequences were measured (“E-score (dimensionless, -0.5 to 0.5)”: median about -0.058, highest 2% from about 0.35 on). The entries come from a sample that favours the highest values as a whole.
observation type: PBM 8-mer E-score
Give bare numbers.

Query string: Provide PBM 8-mer E-score value for the following sequence: ACATTATG
Result string: 0.249

Query string: Provide PBM 8-mer E-score value for the following sequence: GGGTAGCA
Result string: -0.213

Query string: Provide PBM 8-mer E-score value for the following sequence: CGCCCAAC
Result string: -0.0513

Query string: Provide PBM 8-mer E-score value for the following sequence: ATCTCATA
Result string: -0.00882

Query string: Provide PBM 8-mer E-score value for the following sequence: GCTGCCCA
Result string: -0.142

Please give PBM 8-mer E-score for each item listed below.
1. ATTAAATC
2. ATTAAAGG

Result string:
1: 0.382; 2: 0.156

Please give PBM 8-mer E-score for each item listed below.
1. CCCCGTGA
2. CGCCCATC
3. GCCGCTCA
4. ATTACTCG
5. CCACCGTC
6. ATTAAAGA
7. CAATACTC

Result string:
-0.306
-0.117
-0.105
0.169
-0.258
0.264
0.106

Please give PBM 8-mer E-score for each item listed below.
1. ATTAAATG
2. ATATTATG
3. ACCTACGA
4. CTATTATC

Result string:
1. 0.373
2. 0.411
3. -0.0935
4. 0.263

Data origin: the supplement of paper PMC4466236
